Reported MIC90 values are given for each entry in this list.
Test system: Streptococcus pneumoniae
Assay: Antimicrobial activity against macrolide-susceptible Streptococcus pneumoniae by agar dilution method
Type: functional
Entry rule: numbers only, all in µg/mL.

Below, each entry is followed by its recorded MIC90 result.
MOLECULE: C[C@H]1COc2c(N3CCN(C)CC3)c(F)cc3c(=O)c(C(=O)O)cn1c23.C[C@H]1COc2c(N3CCN(C)CC3)c(F)cc3c(=O)c(C(=O)O)cn1c23.O [LEVOFLOXACIN]
TARGET_SYSTEM: Streptococcus pneumoniae
READOUT_UNIT: µg/mL
ENDPOINT_RESULT: 8
//
MOLECULE: CO/N=C(\C(=O)N[C@@H]1C(=O)N2C(C(=O)O)=C(COC(N)=O)CS[C@H]12)c1ccco1 [CEFUROXIME]
TARGET_SYSTEM: Streptococcus pneumoniae
READOUT_UNIT: µg/mL
ENDPOINT_RESULT: 4
//
MOLECULE: CC[C@H]1OC(=O)[C@H](C)[C@@H](O[C@H]2C[C@@](C)(OC)[C@@H](O)[C@H](C)O2)[C@H](C)[C@@H](O[C@@H]2O[C@H](C)C[C@H](N(C)C)[C@H]2O)[C@](C)(O)C[C@@H](C)CN(C)[C@H](C)[C@@H](O)[C@]1(C)O [AZITHROMYCIN]
TARGET_SYSTEM: Streptococcus pneumoniae
READOUT_UNIT: µg/mL
ENDPOINT_RESULT: 0.12
//
MOLECULE: COc1cc(Cc2cnc(N)nc2N)c2cc(Cc3c(C(=O)N(C)C)[nH]c4ccc(Cl)cc34)oc2c1OC
TARGET_SYSTEM: Streptococcus pneumoniae
READOUT_UNIT: µg/mL
ENDPOINT_RESULT: 0.5

Looking up CC1(C)S[C@@H]2[C@H](NC(=O)Cc3ccccc3)C(=O)N2[C@H]1C(=O)O [PENICILLIN G] , I found its MIC90 recorded as 2

These measurements were taken from ChEMBL document CHEMBL1255353.
